The origin of these recorded values is patent US4560695A.

MEASURED_TARGET: aromatase (Rattus norvegicus, UniProt P22443)
Construct: ovarian microsomes are obtained from rats treated with pregnant mares serum gonadotropin
Sequence (P22443 1-508): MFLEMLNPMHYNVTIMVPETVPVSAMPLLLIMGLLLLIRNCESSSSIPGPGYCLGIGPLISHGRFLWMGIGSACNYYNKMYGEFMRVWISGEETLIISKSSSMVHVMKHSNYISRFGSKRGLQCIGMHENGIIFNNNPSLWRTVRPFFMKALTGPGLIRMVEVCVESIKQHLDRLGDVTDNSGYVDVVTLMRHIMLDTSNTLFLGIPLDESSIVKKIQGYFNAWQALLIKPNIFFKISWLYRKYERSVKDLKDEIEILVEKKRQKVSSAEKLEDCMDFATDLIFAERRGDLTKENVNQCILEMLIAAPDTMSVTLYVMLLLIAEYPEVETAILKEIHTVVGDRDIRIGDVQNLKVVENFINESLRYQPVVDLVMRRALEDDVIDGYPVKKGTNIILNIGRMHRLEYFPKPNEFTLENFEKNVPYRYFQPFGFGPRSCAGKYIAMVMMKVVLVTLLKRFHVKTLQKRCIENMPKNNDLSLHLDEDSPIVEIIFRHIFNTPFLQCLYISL
TEST_NAME: Aromatase inhibition in the rat ovarian microsome assay
EXPERIMENTAL_PARAMETERS: substrate (androstenedione) concentration 0.1 μM; rat ovarian microsomes
RECORDED_METRIC: pEC50
Scale note: pEC50 = -log10(concentration in M).

(Q) Entry under review: "OC(c1ccccc1)(c1ccccc1)c1ccns1" . Reported pEC50?
(A) 5.35
